// provenance: patent US20120251444A1

Entries and their % max (percent of maximum binding) values follow.
Molecular target: T1, LRP1 CR3-5 (UniProt Q07954 852-973, limits assumed)
T1 construct: domain: CR3-5; also called LRP1 CR domains
T1 sequence (Q07954 852-973 limits assumed): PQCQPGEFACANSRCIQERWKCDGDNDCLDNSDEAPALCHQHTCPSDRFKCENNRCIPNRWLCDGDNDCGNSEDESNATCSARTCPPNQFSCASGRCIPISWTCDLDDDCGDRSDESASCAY
Experiment: solid-phase binding, OD at highest concentration against highest OD of all ligands

{"columns": ["BINDER", "% max (percent of maximum binding) / %"],
 "data": [
  ["RAP d3 (ligand, also called recombinant RAP d3) GLDRLRRVSHQGYSTEAEFEEPRVIDLWDLAQSANLTDKELEAFREELKHFEAKIEKHNHYQKQLEIAHEKLRHAESVGDGERVSRSREKHALLEGRTKELGYTVKKHLQDLSGRISRARHNEL", 76],
  ["RAP d3 E251K (ligand, also called RAP E251K) GLDRLRRVSHQGYSTEAEFEEPRVIDLWDLAQSANLTDKELEAFREELKHFKAKIEKHNHYQKQLEIAHEKLRHAESVGDGERVSRSREKHALLEGRTKELGYTVKKHLQDLSGRISRARHNEL", 100]
]}
